- assay.target: IRAK4 (Homo sapiens)
- Construct: endogenous in cells; host or cells: THP-1 cells
- Sequence (Q9NWZ3 whole entry): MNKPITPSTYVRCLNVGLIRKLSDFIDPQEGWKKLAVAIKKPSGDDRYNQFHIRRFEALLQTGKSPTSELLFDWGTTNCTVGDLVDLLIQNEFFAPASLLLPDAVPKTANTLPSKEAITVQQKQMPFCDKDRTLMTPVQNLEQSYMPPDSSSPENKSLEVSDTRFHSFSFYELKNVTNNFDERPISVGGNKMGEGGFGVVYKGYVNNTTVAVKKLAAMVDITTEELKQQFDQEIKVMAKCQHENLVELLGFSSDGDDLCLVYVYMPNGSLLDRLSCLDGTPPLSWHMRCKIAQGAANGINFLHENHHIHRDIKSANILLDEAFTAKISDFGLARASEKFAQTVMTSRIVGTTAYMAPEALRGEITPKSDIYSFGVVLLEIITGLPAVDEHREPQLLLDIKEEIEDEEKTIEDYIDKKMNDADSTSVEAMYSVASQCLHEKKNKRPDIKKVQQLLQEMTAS
- test.protocol: LVL THP1 HTRF (THP1 Homogeneous Time Resolved Fluorescence)
- Format: cell-based
- conditions: THP1 cells, 18 h incubation with compound, read-out: LVL THP1 HTRF EC50
reported.property: DC50 (µM)

P: C[C@H](C#N)Nc1cc(-n2ncc3cc(C#N)cnc32)ncc1C(=O)N[C@H]1CC[C@H](CCN2CC[C@H]3[C@@H]2CCN3c2ccc(N3CCC(=O)NC3=O)c(F)c2)CC1 [P-481]
Q: CC[C@@H]1CN(CC[C@H]2CC[C@H](c3cn(-c4cnc(-n5ncc6cc(C#N)cnc65)cc4N[C@H](C)C#N)nn3)CC2)CCN1c1ccc(C2CCC(=O)NC2=O)cc1 (stereo partly drawn)
R: C[C@H](C#N)Nc1cc(-n2ncc3cc(C#N)c(N)nc32)ncc1-n1cc([C@H]2CC[C@H](CCN3CCN(c4ccc([C@@]5(C)CCC(=O)NC5=O)cn4)CC3)CC2)nn1 (single isomer, unassigned)
Sort key = DC50. Sort direction = ascending. Apply to the list above. In your reply, arrange the labels in the requested order.
Q, P, R

---

- assay.target: IRAK4 (Homo sapiens)
- Construct: endogenous in cells; host or cells: THP-1 cells
- test.protocol: LVL THP1 HTRF (THP1 Homogeneous Time Resolved Fluorescence)
- Assay type: cell-based
- conditions: THP1 cells, 18 h incubation with compound, read-out: LVL THP1 HTRF EC50
reported.property: DC50 (nM)

Some solved entries appear below for comparison.
compound	DC50 / nM
C[C@H](C#N)Nc1cc(-n2ncc3cc(C#N)cnc32)ncc1-n1cc([C@H]2CC[C@H](CCN3CCCN(c4ccc(N5CCC(=O)NC5=O)cc4)CC3)CC2)nn1 [P-355]	327
C[C@H](C#N)Nc1cc(-n2ncc3cc(C#N)cnc32)ncc1-n1cc([C@H]2CC[C@H](CCN3CCC(F)(c4ccc([C@@]5(C)CCC(=O)NC5=O)cc4)CC3)CC2)nn1 (single isomer, unassigned) [P-424]	1.9
C[C@H](C#N)Nc1cc(Nc2ccc(C#N)cn2)ncc1-n1cc([C@H]2CC[C@H](CCN3CCN(c4ccc([C@@]5(C)CCC(=O)NC5=O)cc4)CC3)CC2)nn1 [P-298]	82.7
C[C@H](C#N)Nc1cc(-n2ncc3cc(C#N)cnc32)ncc1-n1cc(C2CCC(CCN3CC[C@H]4[C@@H]3CCN4c3ccc(N4CCC(=O)NC4=O)cc3)CC2)nn1 (single isomer, unassigned) [P-328]	2.5

P: C[C@H](C#N)Nc1cc(-n2ncc3cc(C#N)cnc32)ncc1-n1cc([C@H]2CC[C@H](CCN3C[C@@H](C)N(c4ccc(N5CCC(=O)NC5=O)cc4)C[C@H]3C)CC2)nn1 [P-496]
Q: C[C@H](C#N)Nc1cc(Nc2ncc(C#N)cc2Cl)ncc1-n1cc([C@H]2CC[C@H](CCN3CCN(c4ccc(N5CCC(=O)NC5=O)cc4)[C@@H]4COC[C@@H]43)CC2)nn1 (single isomer, unassigned) [P-503]
R: C[C@H](C#N)Nc1cc(-n2ncc3cc(C#N)cnc32)ncc1-n1cc([C@H]2CC[C@H](CCN3CC[C@H]4[C@@H]3CCN4c3ccc(N4CCC(=O)NC4=O)c(F)c3)CC2)nn1 (single isomer, unassigned) [P-480]
S: COc1cc([C@@]2(C)CCC(=O)NC2=O)ccc1N1CCN(CC[C@H]2CC[C@H](c3cn(-c4cnc(-n5ncc6cc(C#N)c(N)nc65)cc4N[C@H](C)C#N)nn3)CC2)C[C@H]1C (single isomer, unassigned) [P-304]
Arrange the 4 compounds by rising DC50, starting with the smallest. In your reply, arrange the labels in the requested order.
S, R, P, Q
(S: 11.9 nM, R: 26 nM, P: 127 nM, Q: 1000 nM)

a: C[C@H](C#N)Nc1cc(-n2ncc3cc(C#N)cnc32)ncc1-c1cc([C@H]2CC[C@H](CCN3CCN(c4ccc(C5CCC(=O)NC5=O)cc4)CC3)CC2)on1 (stereo partly shown) [P-196]
b: C[C@H](C#N)Nc1cc(-n2ncc3cc(C#N)cnc32)ncc1-n1cc([C@H]2CC[C@H](CCN3CCC(c4ccc(N5CCC(=O)NC5=O)c(Cl)c4)CC3)CC2)nn1 [P-342]
Please tell me which of the two, a or b , has the higher reported DC50 value. Answer by stating the label of the chosen item.
a
